TARGET_OR_SYSTEM: human recombinant GABA A receptor containing the alpha2, beta2, and gamma3 subunits (Homo sapiens, UniProt P47869+Q99928)
EXPERIMENTAL_PROTOCOL: Radioligand competition binding assay with [3H]Ro-15-1788 (Flumazenil)
MEASURED_ATTRIBUTE: Ki (nM)

Known results for molecules:
CCS(=O)(=O)c1ccc(-c2cc(-c3cnnc4c3ncn4C3(C)CC3)ccc2F)cc1 [Example 27] = 34.8
CCS(=O)(=O)c1ccc(-c2cc(-c3cnnc4c3ncn4C3CC3)ccc2F)c(F)c1 [Example 22] = 67.8
CNS(=O)(=O)c1ccc(-c2cc(-c3cnnc4c3ncn4C(C)C)ccc2F)cc1 [Example 33] = 16.4
CS(=O)(=O)c1ccc(-c2cc(-c3cnnc4c3ncn4C3CC3)ccc2F)cc1 [Example 21] = 43.3
CC(C)n1cnc2c(-c3ccc(F)c(-c4ccc(S(N)(=O)=O)cc4)c3)cnnc21 [Example 32] = 5.82
CCS(=O)(=O)c1ccc(-c2cc(-c3cnnc4c3ncn4C3CC3)ccc2F)c(C#N)c1 [Example 25] = 170

I. CCS(=O)(=O)c1ccc(-c2cc(-c3cnnc4c3ncn4C(C)C)ccc2F)c(C#N)c1 [Example 41]
II. CCn1cnc2c(-c3ccc(OC)c(-c4ccc(S(=O)(=O)CC)cc4F)c3)cnnc21 [Example 44]
Ask: Kindly compare I with II and tell me which has the lower Ki figure. Please indicate the selected item by its label.
Reply: I

====

TARGET_OR_SYSTEM: human recombinant GABA A receptor containing the alpha2, beta2, and gamma3 subunits (Homo sapiens, UniProt P47869+Q99928)
EXPERIMENTAL_PROTOCOL: Radioligand competition binding assay with [3H]Ro-15-1788 (Flumazenil);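 further: membranes from HEK cells expressing the receptor, incubated with radioligand to equilibrium, filter-bound radioactivity counted, Ki reported as geometric mean of replicate runs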
MEASURED_ATTRIBUTE: Ki (nM)

COc1cc(S(C)(=O)=O)ccc1-c1cc(-c2cnnc3c2ncn3C2CCC2)ccc1F = 101
COc1cc(S(C)(=O)=O)ccc1-c1cc(-c2cnnc3c2ncn3C2CC2)ccc1F = 37.1
CC(C)n1cnc2c(-c3ccc(F)c(-c4ccc(S(=O)(=O)C(C)C)cc4C#N)c3)cnnc21 = 38.8
COc1cc(S(C)(=O)=O)ccc1-c1cc(-c2cnnc3c2ncn3C2CCCC2)ccc1F = 91.4
CCn1cnc2c(-c3ccc(F)c(-c4ccc(S(=O)(=O)C5CCC5)cc4OC)c3)cnnc21 = 9.51
CCS(=O)(=O)c1ccc(-c2cc(-c3cnnc4c3ncn4C3CC3)ccc2F)cc1 = 31.1

P. COc1cc(S(C)(=O)=O)ccc1-c1cc(-c2cnnc3c2ncn3C(C)C)ccc1F
Q. CC(C)S(=O)(=O)c1ccc(-c2cc(-c3cnnc4c3ncn4C3CC3)ccc2F)c(C#N)c1
R. CCS(=O)(=O)c1ccc(-c2cc(-c3cnnc4c3ncn4C(C)C)ccc2F)c(Cl)c1
S. CCn1cnc2c(-c3ccc(F)c(-c4ccc(S(=O)(=O)C(C)C)cc4C#N)c3)cnnc21
Ask: Would you mind ranking these compounds by ascending Ki? Order the labels as requested and list them.
Reply: P, R, S, Q
